Source listed as patent US10577364B2.

assay_name: Pharmacokinetic study, oral administration to fasted SD rats
applied_conditions: female, SD, rat, plasma, po, 50 mg/kg
readout_kind: AUC(0-t)
The reply must contain the numeric value and, after it, the unit.

Output measured AUC(0-t) for this item: O=C(Nc1ccc(Oc2ccnc3c2CCN3)c(F)c1)c1c[nH]cc(-c2ccc(F)cc2)c1=O
9700 ng·h/mL

====

assay_name: Kinetic solubility in H2O at RT
applied_conditions: water, thermodynamic from solid
readout_kind: solubility kinetic at 4 h
Could you write the number and then its unit?

Quote solubility kinetic at 4 h reported for O=C(Nc1ccc(Oc2ccnc3c2CCN3)c(F)c1)c1c[nH]cc(-c2ccc(F)cc2)c1=O please.
1.1 µg/mL

====

assay_name: Pharmacokinetic study, oral administration to fasted SD rats
applied_conditions: female, SD, rat, plasma, po, 50 mg/kg
readout_kind: Tmax (h)
The figure you give is taken to be in h; do not add the unit.

Indicate the recorded Tmax value for this compound: O=C(Nc1ccc(Oc2ccnc3c2CCN3)c(F)c1)c1c[nH]cc(-c2ccc(F)cc2)c1=O
6

====

assay_name: physchem
applied_conditions: water, thermodynamic from solid
readout_kind: solubility kinetic at 4 h (µg/mL)
Answer in µg/mL, number only, no unit symbol.

State, in one line, measured solubility kinetic at 4 h of O=C(Nc1ccc(Oc2ccnc3c2CCN3)c(F)c1)c1c[nH]cc(-c2ccc(F)cc2)c1=O.O=C(O)/C=C\C(=O)O [The Crystalline Form of Formula I]
47.8

====

assay_name: physchem
applied_conditions: water, thermodynamic from solid
readout_kind: solubility kinetic at 1 h (µg/mL)
Record the value in µg/mL, omitting the unit from your answer.

Indicate the recorded solubility kinetic at 1 h value for this compound: O=C(Nc1ccc(Oc2ccnc3c2CCN3)c(F)c1)c1c[nH]cc(-c2ccc(F)cc2)c1=O.O=C(O)/C=C\C(=O)O [The Crystalline Form of Formula I]
59

====

assay_name: in vivo
applied_conditions: female, SD, rat, po, 50 mg/kg
readout_kind: AUC(0-t) (ng·h/mL)
// units = ng·h/mL; emit number, no label

Identify measured AUC(0-t) corresponding to O=C(Nc1ccc(Oc2ccnc3c2CCN3)c(F)c1)c1c[nH]cc(-c2ccc(F)cc2)c1=O.O=C(O)/C=C\C(=O)O [The Crystalline Form of Formula I]
46400

====

assay_name: Pharmacokinetic study, oral administration to fasted SD rats
applied_conditions: male, SD, rat, plasma, po, 50 mg/kg
readout_kind: Tmax (h)
Number in h, nothing else.

Fill in Tmax for record O=C(Nc1ccc(Oc2ccnc3c2CCN3)c(F)c1)c1c[nH]cc(-c2ccc(F)cc2)c1=O
4.5

====

assay_name: Pharmacokinetic study, oral administration to fasted SD rats
applied_conditions: male, SD, rat, plasma, po, 50 mg/kg
readout_kind: Cmax

Give recorded Cmax. O=C(Nc1ccc(Oc2ccnc3c2CCN3)c(F)c1)c1c[nH]cc(-c2ccc(F)cc2)c1=O
2200 ng/mL

====

assay_name: Pharmacokinetic study, oral administration to fasted SD rats
applied_conditions: male, SD, rat, plasma, po, 50 mg/kg
readout_kind: AUC(0-t)
Record the result as a number with its unit.

Provide measured AUC(0-t) value, entry: O=C(Nc1ccc(Oc2ccnc3c2CCN3)c(F)c1)c1c[nH]cc(-c2ccc(F)cc2)c1=O
10100 ng·h/mL

====

assay_name: in vivo
applied_conditions: female, SD, rat, po, 50 mg/kg
readout_kind: Cmax (ng/mL)
Numeric answer only, unit ng/mL assumed.

Tell me measured Cmax for O=C(Nc1ccc(Oc2ccnc3c2CCN3)c(F)c1)c1c[nH]cc(-c2ccc(F)cc2)c1=O.O=C(O)/C=C\C(=O)O [The Crystalline Form of Formula I] please.
7500

====

assay_name: Kinetic solubility in H2O at RT
applied_conditions: water, thermodynamic from solid
readout_kind: solubility kinetic at 1 h (µg/mL)
Quick reminder: number only, in µg/mL, skip the unit.

Answer with the recorded solubility kinetic at 1 h for the compound listed here: O=C(Nc1ccc(Oc2ccnc3c2CCN3)c(F)c1)c1c[nH]cc(-c2ccc(F)cc2)c1=O [The Compound of Formula II]
0.8

====

assay_name: in vivo
applied_conditions: female, SD, rat, po, 50 mg/kg
readout_kind: AUC(0-inf) (ng·h/mL)
Provide only the numeric value, understood in ng·h/mL.

Supply recorded AUC(0-inf) for O=C(Nc1ccc(Oc2ccnc3c2CCN3)c(F)c1)c1c[nH]cc(-c2ccc(F)cc2)c1=O.O=C(O)/C=C\C(=O)O [The Crystalline Form of Formula I] here.
49300

====

assay_name: Pharmacokinetic study, oral administration to fasted SD rats
applied_conditions: female, SD, rat, plasma, po, 50 mg/kg
readout_kind: Cmax

# return recorded Cmax for input O=C(Nc1ccc(Oc2ccnc3c2CCN3)c(F)c1)c1c[nH]cc(-c2ccc(F)cc2)c1=O
1900 ng/mL

====

assay_name: Pharmacokinetic study, oral administration to fasted SD rats
applied_conditions: female, SD, rat, plasma, po, 50 mg/kg
readout_kind: AUC(0-inf) (µg·h/mL)
Unit µg·h/mL implied. Number only.

Identify measured AUC(0-inf) corresponding to O=C(Nc1ccc(Oc2ccnc3c2CCN3)c(F)c1)c1c[nH]cc(-c2ccc(F)cc2)c1=O
18.2

====

assay_name: in vivo
applied_conditions: female, SD, rat, po, 50 mg/kg
readout_kind: Tmax
Respond with a number, then the unit of measure.

Recall and state the measured Tmax for O=C(Nc1ccc(Oc2ccnc3c2CCN3)c(F)c1)c1c[nH]cc(-c2ccc(F)cc2)c1=O.O=C(O)/C=C\C(=O)O [The Crystalline Form of Formula I] .
2 h

====

assay_name: Pharmacokinetic study, oral administration to fasted SD rats
applied_conditions: male, SD, rat, plasma, po, 50 mg/kg
readout_kind: AUC(0-inf) (ng·h/mL)
# value in ng·h/mL; strip the unit string

State its AUC(0-inf): O=C(Nc1ccc(Oc2ccnc3c2CCN3)c(F)c1)c1c[nH]cc(-c2ccc(F)cc2)c1=O
17100

====

assay_name: in vivo
applied_conditions: female, SD, rat, po, 50 mg/kg
readout_kind: half-life
Kindly report the value followed by its unit.

Output half-life of O=C(Nc1ccc(Oc2ccnc3c2CCN3)c(F)c1)c1c[nH]cc(-c2ccc(F)cc2)c1=O.O=C(O)/C=C\C(=O)O [The Crystalline Form of Formula I]
3.7 h

====

assay_name: Kinetic solubility in H2O at RT
applied_conditions: water, thermodynamic from solid
readout_kind: solubility kinetic at 24 h (µg/mL)
Just the number please, in µg/mL, no unit attached.

Return solubility kinetic at 24 h for the following molecule: O=C(Nc1ccc(Oc2ccnc3c2CCN3)c(F)c1)c1c[nH]cc(-c2ccc(F)cc2)c1=O [The Compound of Formula II]
0.5

====

assay_name: in vivo
applied_conditions: male, SD, rat, po, 50 mg/kg
readout_kind: Tmax (h)
All answers are understood in h, so give the number only.

Provide only the value of recorded Tmax for O=C(Nc1ccc(Oc2ccnc3c2CCN3)c(F)c1)c1c[nH]cc(-c2ccc(F)cc2)c1=O.O=C(O)/C=C\C(=O)O [The Crystalline Form of Formula I]
2.7

====

assay_name: Pharmacokinetic study, oral administration to fasted SD rats
applied_conditions: female, SD, rat, plasma, po, 50 mg/kg
readout_kind: half-life (min)
Expressed in min, but write only the number.

For the molecule O=C(Nc1ccc(Oc2ccnc3c2CCN3)c(F)c1)c1c[nH]cc(-c2ccc(F)cc2)c1=O , give its reported half-life.
282

====

assay_name: in vivo
applied_conditions: male, SD, rat, po, 50 mg/kg
readout_kind: Cmax (ng/mL)
State just the number; it will be interpreted in ng/mL.

Name the recorded Cmax of the item O=C(Nc1ccc(Oc2ccnc3c2CCN3)c(F)c1)c1c[nH]cc(-c2ccc(F)cc2)c1=O.O=C(O)/C=C\C(=O)O [The Crystalline Form of Formula I] in your answer.
3900
